test.method.notes: Antiproliferative activity against VEGF-stimulated HUVEC cells assessed as reduction in cell viability at 10 nM preincubated for 1 hr followed by addition of VEGF measured after 72 hrs by MTT assay
Assay type: functional
recorded.conditions: Homo sapiens
Each entry below carries its reported inhibition at 0.01 µM.
Kindly answer with a numeric value in %, unit omitted.

compound: C[C@@H](CC(=O)Nc1cccc(C(=O)c2ccc3c(/C=C/c4ccccc4)n[nH]c3c2)c1)c1ccccc1
measurement.units: %
inhibition at 0.01 µM: 52
//
compound: O=C(c1cccc(NC(=O)[C@H]2CCC[C@H]2O)c1)c1ccc2c(/C=C/c3ccccc3)n[nH]c2c1
measurement.units: %
inhibition at 0.01 µM: 39
//
compound: CC(C)[C@@H](O)C(=O)Nc1cccc(C(=O)c2ccc3c(/C=C/c4ccccc4)n[nH]c3c2)c1
measurement.units: %
inhibition at 0.01 µM: 33
//
compound: Cc1ccc(C2(C(=O)Nc3cccc(Nc4ccc5c(/C=C/c6ccccc6)n[nH]c5c4)c3)CC2)cc1
measurement.units: %
inhibition at 0.01 µM: 2
//
compound: O=C(c1cccc(NC(=O)c2cccc3cc[nH]c23)c1)c1ccc2c(/C=C/c3ccccc3)n[nH]c2c1
measurement.units: %
inhibition at 0.01 µM: 58
//
compound: CC1(C)OC(=O)[C@H](CC(=O)Nc2cccc(Nc3ccc4c(/C=C/c5ccccc5)n[nH]c4c3)c2)O1
measurement.units: %
inhibition at 0.01 µM: 20
//
compound: CC1(C)OC(=O)CC1C(=O)Nc1cccc(Oc2ccc3c(/C=C/c4ccccc4)n[nH]c3c2)c1 (configuration not stated)
measurement.units: %
inhibition at 0.01 µM: 25
//
compound: CN1CSCCC1C(=O)Nc1cccc(Nc2ccc3c(/C=C/c4ccccc4)n[nH]c3c2)c1 (configuration not stated)
measurement.units: %
inhibition at 0.01 µM: 0
//
compound: CN(C)C(=S)SCC(=O)Nc1cccc(Oc2ccc3c(/C=C/c4ccccc4)n[nH]c3c2)c1
measurement.units: %
inhibition at 0.01 µM: 70
//
compound: CC(C)=NOC(C)C(=O)Nc1cccc(Nc2ccc3c(/C=C/c4ccccc4)n[nH]c3c2)c1 (configuration not stated)
measurement.units: %
inhibition at 0.01 µM: -1

Requested field: inhibition at 0.01 µM. Item: O=C(c1cccc(NC(=O)C(O)c2ccccc2)c1)c1ccc2c(/C=C/c3ccccc3)n[nH]c2c1 (configuration not stated)
3

Requested field: inhibition at 0.01 µM. Item: CC(C)(C)c1ccc(C(=O)Nc2cccc(Oc3ccc4c(/C=C/c5ccccc5)n[nH]c4c3)c2)o1
52

Requested field: inhibition at 0.01 µM. Item: C[C@@H]1[C@H](C)[C@H](C)C[C@@H]1C(=O)Nc1cccc(Oc2ccc3c(/C=C/c4ccccc4)n[nH]c3c2)c1
23

Requested field: inhibition at 0.01 µM. Item: O=C(Cc1cc(F)cc(F)c1)Nc1cccc(Oc2ccc3c(/C=C/c4ccccc4)n[nH]c3c2)c1
80

Requested field: inhibition at 0.01 µM. Item: Cc1cc(C(=O)Nc2cccc(Oc3ccc4c(/C=C/c5ccccc5)n[nH]c4c3)c2)oc(=O)c1
83

Requested field: inhibition at 0.01 µM. Item: O=C(Nc1cccc(Oc2ccc3c(/C=C/c4ccccc4)n[nH]c3c2)c1)C1CCCO1 (configuration not stated)
51

Requested field: inhibition at 0.01 µM. Item: O=C(Cc1cc(F)ccc1F)Nc1cccc(C(=O)c2ccc3c(/C=C/c4ccccc4)n[nH]c3c2)c1
80
